# system-tested: canine FcRn complex (FcRn-alpha subunit and beta-microglobulin), His-tagged, biotin labeled (canine)
# protocol-text: SPR (Biacore), biotin-FcRn captured on SA surface, IgG flowed over, pH 6, 15 C
attribute-measured: pKd
On this scale, pKd is minus log10 of a concentration expressed in M (mol/L).

Below are worked cases with known answers.
canine IgGB (65) mAb with mutation Q311S (antibody, part only; not given: variable domains of unnamed mAb, not shown: another chain or arm of the molecule) constant: ASTTAPSVFPLAPSCGSTSGSTVALACLVSGYFPEPVTVSWNSGSLTSGVHTFPSVLQSSGLYSLSSMVTVPSSRWPSETFTCNVAHPASKTKVDKPVPKRENGRVPRPPDCPKCPAPEMLGGPSVFIFPPKPKDTLLIARTPEVTCVVVDLDPEDPEVQISWFVDGKQMQTAKTQPREEQFNGTYRVVSVLPIGHSDWLKGKQFTCKVNNKALPSPIERTISKARGQAHQPSVYVLPPSREELSKNTVSLTCLIKDFFPPDIDVEWQSNGQQEPESKYRTTPPQLDEDGSYFLYSKLSVDKSRWQRGDTFICAVMHEALHNHYTQESLSHSPGK = 8.06
canine IgGB (65) mAb with mutation T286H (antibody, part only; not given: variable domains of unnamed mAb, not shown: another chain or arm of the molecule) constant: ASTTAPSVFPLAPSCGSTSGSTVALACLVSGYFPEPVTVSWNSGSLTSGVHTFPSVLQSSGLYSLSSMVTVPSSRWPSETFTCNVAHPASKTKVDKPVPKRENGRVPRPPDCPKCPAPEMLGGPSVFIFPPKPKDTLLIARTPEVTCVVVDLDPEDPEVQISWFVDGKQMQHAKTQPREEQFNGTYRVVSVLPIGHQDWLKGKQFTCKVNNKALPSPIERTISKARGQAHQPSVYVLPPSREELSKNTVSLTCLIKDFFPPDIDVEWQSNGQQEPESKYRTTPPQLDEDGSYFLYSKLSVDKSRWQRGDTFICAVMHEALHNHYTQESLSHSPGK = 8.30

Next:
Ask | # lookup: pKd of canine IgGB (65) mAb with mutation T286K (antibody, part only; not given: Variable domains, not shown: another chain or arm of the molecule) constant: ASTTAPSVFPLAPSCGSTSGSTVALACLVSGYFPEPVTVSWNSGSLTSGVHTFPSVLQSSGLYSLSSMVTVPSSRWPSETFTCNVAHPASKTKVDKPVPKRENGRVPRPPDCPKCPAPEMLGGPSVFIFPPKPKDTLLIARTPEVTCVVVDLDPEDPEVQISWFVDGKQMQKAKTQPREEQFNGTYRVVSVLPIGHQDWLKGKQFTCKVNNKALPSPIERTISKARGQAHQPSVYVLPPSREELSKNTVSLTCLIKDFFPPDIDVEWQSNGQQEPESKYRTTPPQLDEDGSYFLYSKLSVDKSRWQRGDTFICAVMHEALHNHYTQESLSHSPGK
Reply | 8.15
